HTRF deltaF listing for selected binders.
assay_target: T1, S2 subunit of the SARS-CoV-2 spike protein (Sino Biological 40590-V08B), His tag (SARS-CoV-2, UniProt P0DTC2 686-1213)
T1 construct: domain: S2 subunit
Enter your answer as a number in deltaF; do not include the unit.

Asked: Reported HTRF deltaF for IMPI-022 (antibody, V domains shown) VH: EVQLVESGGGLVQPGRSLRLSCAASGFTFDDYAMHWVRQAPGKGLEWVSGITWNSGSIGYADSVKGRFTISRDNAKNSLYLHMNSLRVEDTALYYCAKDLQGDYYYYGVDVWGQGTTVTVSS VL: AIQLTQSPSSLSASVGDRVTITCRASQGISSALAWYQQKPGKAPKLLLYDASSLVSGVPSRFSGSRSGTDFTLTISSLQPEDFATYYCQQFISYPLTFGGGTRVEIK : what is it?
Given back: -9.7

Asked: IMPI-024 (antibody, V domains shown) VH: EVQLVQSGAEVKKPGESLKISCKGSGYSFTSYWIGWVRQMPGKGLEWMGIIYPGDSDTRYSPSFQGQVTISADKSISTAYLQWSSLKASDTAMYYCVRSYNWNYFDYWGQGTLVTVSS VL: AIQLTQSPSSLSASVGDRVTITCRASQGISSGLAWYQQKAGKAPKLLIYDVSSLESGVPSRFSGSGSGTDFTLTISSLQPEDFATYYCQQFLSYPWTFGQGTKVEIK , same question.
Given back: -15.4

Asked: IMPI-047 (antibody, V domains shown) VH: EVQLVESGGGLIQPGGSLRLSCAASGFTVSSNYMNWVRQAPGKGLEWVSVIYSGGSTYYADSVKGRFTISRDNSKNTLYLQMNSLRTEDTAVYYCARDLVAYGMDVWGQGTTVTVSS VL: DIQLTQSPSFLSASVGDRVTITCWASQGISSYLAWYQQKPGKAPKVLIYAASTLQSGVPSRFSGSGSGTEFTLTISSLQPEDFATYYCQLLNSNPLTFGGGTKVEIK , same question.
Given back: 4.3

Asked: IMPI-055 (antibody, V domains shown) VH: QVQLVQSGAEVKKPGASVKVSCKASGYTFTSYDINWVRQATGQGLEWMGWMNPNSGNTGYAQKFQGRVTMTRDTSINTAYMELSSLRSEDTAVYFCARGGRYCSDVTCYSGEPFDYWGQGTLVTVSS VL: EIMLTQSPDFQSVTPKEKVTITCRASQSIGSSLHWYQQKPDQSPKLLIKFASQSISGVPSRFSGSGSGTDFTLTINSLEAEDAAAYYCHQSSSLPHTFGPGTKVEIK , same question.
Given back: -10.3
